All values here come from patent US20260167632A1.

Molecular target: human KCNK13 (Homo sapiens, UniProt Q9HB14)
Sequence (Q9HB14 1-408): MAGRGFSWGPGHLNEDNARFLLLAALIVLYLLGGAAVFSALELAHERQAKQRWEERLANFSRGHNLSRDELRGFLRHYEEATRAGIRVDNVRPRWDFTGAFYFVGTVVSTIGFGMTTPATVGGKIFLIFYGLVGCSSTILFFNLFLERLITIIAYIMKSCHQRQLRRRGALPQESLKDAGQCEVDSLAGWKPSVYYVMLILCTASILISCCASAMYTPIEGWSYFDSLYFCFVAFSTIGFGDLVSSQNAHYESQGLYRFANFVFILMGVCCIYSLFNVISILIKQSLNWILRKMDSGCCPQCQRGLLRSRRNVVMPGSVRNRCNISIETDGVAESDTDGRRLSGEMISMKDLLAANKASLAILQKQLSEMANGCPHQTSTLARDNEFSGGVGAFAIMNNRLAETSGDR
Assay: KCNK13 antagonist activity, thallium flux FLIPR assay in HEK 293 cells stably expressing human KCNK13
Settings: HEK 293 cells stably expressing human KCNK13, Tl+ sensitive dye, compound 15 min before thallium sulfate, ten point curves; read-out: hKCNK13 IC50
pIC50: −log10 of the molar value.
Collected pIC50 values appear next to each entry.
readout.type: pIC50

COc1ncc(Cl)cc1C(=O)N(C)Cc1cc(F)cc(Cl)c1
≥ 6.70
C[C@@H](c1cccc(F)c1)N(C)S(=O)(=O)c1cc(F)cnc1OC(F)F
≥ 6.00
COc1ncc(Cl)cc1C(=O)N(C)C1CCOc2c(F)cccc21 (single isomer, unassigned) [Example 29]
≥ 6.30
CN(Cc1cc(F)cc(F)c1)C(=O)c1cc(Cl)cnc1OC(F)F
≥ 7.30
O=S(=O)(c1cc(F)cnc1OC(F)F)N1CCOc2ccc(F)cc2C1
≥ 6.70
